Recorded normalized growth values for a group of molecules are listed next.
testProtocol: chemical genetic growth profiling, strain panel (AID 1159580);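 note: tested at 20 µM; growth read once vehicle control cultures reached saturation at 30 °C; 1 = growth at the plate median or of vehicle wells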
conditionSummary: S. cerevisiae deletion strains, growth OD, locus YPR163C, strain tif3, stronger effect = lower value
About 2,000 (36%) of roughly 5,500 compounds were called active. Not shown: some 18% with an inconclusive outcome. This is one part of the list.
Hey, just send me the number, nothing else.

Below are worked cases with known answers.
Cc1[nH]ccc2c1[nH]c1cc(=O)ccc12 ... 0.986
CC/C(=C(/CC)c1ccc(O)cc1)c1ccc(O)cc1 ... 1.02
CCC(N)C(O)c1ccc(O)c(O)c1 (centres undefined) ... 0.996
CCC(c1ccc(O)cc1)C(CC)c1ccc(O)cc1 (centres undefined) ... 1.02
CCCCOc1cc(C(=O)NCCN(CC)CC)c2ccccc2n1 ... 1
OCC(O)C(O)C(O)C(O)C(O)CO (centres undefined) ... 1.01

Ask: Please look up its normalized growth: COC(=O)C[C@H]1C(C)(C)C2(Cl)O[C@@]34CC2C(=O)[C@]1(C)C3CC[C@]1(C)C4=CC(=O)O[C@H]1c1ccoc1 (some centres undefined)
Reply: 0.991

Ask: Please look up its normalized growth: CCC1OC(=O)[C@H](C)C(=O)[C@H](C)[C@@H](OC2O[C@H](C)C[C@H](N(C)C)[C@H]2O)[C@](C)(OC)C2(CCCn3cnc(-c4cccnc4)c3)C[C@@H](C)C(=O)[C@H](C)[C@H]3N(C2)C(=O)O[C@]13C (some centres undefined)
Reply: 1.01

Ask: Please look up its normalized growth: CC(CC(O)C1OC1(C)C)[C@@H]1CCC2(C)C3=CCC4C(C)(C)C(=O)CCC4(C)C3CC[C@@]12C (some centres undefined)
Reply: 1.04

---

testProtocol: chemical genetic growth profiling, strain panel (AID 1159580)
conditionSummary: S. cerevisiae deletion strains, growth OD, locus YNR030W, strain Alg12, stronger effect = lower value
The campaign covered roughly 5,500 compounds. About 2,000 (36%) were called active. Not shown: some 18% with an inconclusive outcome. This is one part of the list.
Class key for normalized growth values: bucket A = under 0.9, bucket B = from 0.9 up to 1, bucket C = 1 and over

Examples from the recorded data:
CCOC(=O)C1=C(N)Oc2ccc(Br)cc2C1C(C#N)C(=O)OCC (configuration not stated) ... bucket A
CCOC(=O)c1sc(S(C)(=O)=O)c2c1CCCC2O (configuration not stated) ... bucket C

Ask: Which bin, given its normalized growth, does CCOC(=O)/C(C#N)=C/c1ccc(Br)cc1 occupy?
Reply: bucket A

Ask: Which bin, given its normalized growth, does CSc1cccc(NC(=S)N=CN(C)C)c1 occupy?
Reply: bucket B

---

testProtocol: chemical genetic growth profiling, strain panel (AID 1159580);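 note: tested at 20 µM; growth read once vehicle control cultures reached saturation at 30 °C; 1 = growth at the plate median or of vehicle wells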
conditionSummary: S. cerevisiae deletion strains, growth OD, locus YDR101C, strain arx1, stronger effect = lower value
About 2,000 (36%) of roughly 5,500 compounds were called active. Not shown: some 18% with an inconclusive outcome. This is one part of the list.
valueKind: normalized growth
Hey, just send me the number, nothing else.

Below are worked cases with known answers.
C=C[C@H]1CN2CC[C@H]1C[C@@H]2[C@@H](OC(=O)OCC)c1ccnc2ccc(OC)cc12 ... 1
COc1ccc(-c2cc(=O)c3c(O)cc(O[C@H]4O[C@H](CO[C@@H]5O[C@@H](C)[C@H](O)[C@@H](O)[C@H]5O)[C@@H](O)[C@H](O)[C@H]4O)cc3o2)cc1 ... 1.01
CCc1cccc(CC)c1N(COC)C(=O)CCl ... 1.02
COc1ccc2c3c1OC1C(O)CC=C4C(C2)N(C)CCC431 (centres undefined) ... 1
CCCCC1C(=O)N(c2ccccc2)N(c2ccc(O)cc2)C1=O (centres undefined) ... 1.01
CNC(=O)Oc1cccc2c1OC(C)(C)O2 ... 0.989
CC(=O)Oc1ccc2c(c1C(C)C)CCC1C(C)(C)CCC[C@]21C (some centres undefined) ... 0.995
COc1ccc(-c2oc3c(CC=C(C)C)c(O[C@@H]4O[C@H](CO)[C@@H](O)[C@H](O)[C@H]4O)cc(O)c3c(=O)c2O[C@@H]2O[C@@H](C)[C@H](O)[C@@H](O)[C@H]2O)cc1 ... 0.975

Moving on to the next compound.
Ask: Please look up its normalized growth: CC(C)c1c(O)ccc2c1CCC1[C@@](C)(CO)CCC[C@]21C (some centres undefined)
Reply: 0.967

---

testProtocol: chemical genetic growth profiling, strain panel (AID 1159580);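 note: tested at 20 µM; growth read once vehicle control cultures reached saturation at 30 °C; 1 = growth at the plate median or of vehicle wells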
conditionSummary: S. cerevisiae deletion strains, growth OD, locus YPL106C, strain sse1, stronger effect = lower value
Out of some 5,500 compounds screened, about 2,000 (36%) were called active. Another 18% or so got no clear call; they are omitted. The list shows a part of the results.
Recorded normalized growth values for a group of molecules are listed next.
Hey, just send me the number, nothing else.

Below are worked cases with known answers.
CCN(Cc1ccncc1)C(=O)C(CO)c1ccccc1 (configuration not stated) ... 1.02
CC1O[C@@H](Oc2c(-c3ccc(O)c(O)c3)oc3cc(O)cc(O)c3c2=O)[C@H](O)[C@H](O)[C@H]1O (some centres not stated) ... 0.971
O=c1ccc2cc(OC3OC(CO)C(O)C(O)C3O)c(O)cc2o1 (configuration not stated) ... 1.01
CNC(=O)Oc1cccc2c1OC(C)(C)O2 ... 1.08
O=c1cc(-c2ccc(O)cc2)oc2cc(O[C@@H]3O[C@H](CO)[C@@H](O)[C@H](O)[C@H]3O)cc(O)c12 ... 1
C=C(C)[C@H]1COc2cc3oc(=O)ccc3cc2O1 ... 0.709
CC1(C)C(=O)C=C[C@@]2(C)C1C=C[C@]1(C)C2CC[C@@]2(C)[C@H](c3ccoc3)OC(=O)C3OC321 (some centres not stated) ... 0.942
CC1(C)C=CC(=O)[C@@]2(C)C1CC(=O)[C@]1(C)C2CC[C@@]2(C)[C@H](c3ccoc3)OC(=O)C3OC321 (some centres not stated) ... 1
CC(=O)OCC1=C(C(=O)O)N2C(=O)[C@@H](NC(=O)Cc3cccs3)[C@H]2SC1 ... 0.945
CC1(C)C2CC(=O)[C@]3(C)C(CC[C@@]4(C)[C@H](c5ccoc5)OC(=O)C5OC543)[C@@]2(C)[C@@H](O)C[C@H]1O (some centres not stated) ... 1.02

Ask: Please look up its normalized growth: O=c1c(O)c(-c2ccc(O)cc2O)oc2cc(O)cc(O)c12
Reply: 0.916

Ask: Please look up its normalized growth: COc1ccc(Cl)cc1C(=O)NCCc1ccc(S(=O)(=O)NC(=O)NC2CCCCC2)cc1
Reply: 1.02

---

testProtocol: chemical genetic growth profiling, strain panel (AID 1159580);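 note: tested at 20 µM; growth read once vehicle control cultures reached saturation at 30 °C; 1 = growth at the plate median or of vehicle wells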
conditionSummary: S. cerevisiae deletion strains, growth OD, locus YKL160W, strain elf1
In all, about 5,500 compounds went through this assay and about 2,000 (36%) were called active. Roughly 18% stayed inconclusive and do not appear here. No stated cut-off is given here; in the data, active means normalized growth mostly below about 0.91 (no sharp cut-off); inconclusive means no clear call, values can overlap the other calls; inactive means mostly above about 0.92. The list shows a part of the results.
# output must be one of active, inactive

Examples from the recorded data:
NC(=O)NCCCC(N)C(=O)O (stereo unspecified) ... inactive
Cc1cc(C2CCCCC2)n(O)c(=O)c1 ... active
C[C@@H]1CC[C@@]2(OC1)OC1CC3C4CC=C5C[C@@H](O)CC[C@]5(C)C4CC[C@]3(C)C1[C@@H]2C (stereo partly specified) ... inactive
CC(=O)Oc1ccc2c(c1OC(C)=O)OCC1(O)Cc3c(cc(OC(C)=O)c(OC(C)=O)c3OC(C)=O)C21 (stereo unspecified) ... inactive
C=C1CCC2(OC1)OC1CC3C4CC=C5CC(O)CC(O)C5(C)C4CCC3(C)C1C2C (stereo unspecified) ... inactive
NS(=O)(=O)c1cc(C2(O)NC(=O)c3ccccc32)ccc1Cl (stereo unspecified) ... inactive
CC1CCC2(OC1)OC1CC3C4CC[C@H]5C[C@@H](O)CC[C@]5(C)C4CC(=O)[C@]3(C)C1C2C (stereo partly specified) ... inactive
C=CC1C2=CCOC(=O)C2=COC1OC1OC(CO)C(O)C(O)C1O (stereo unspecified) ... inactive
COc1ccc(Cl)cc1C(=O)NCCc1ccc(S(=O)(=O)NC(=O)NC2CCCCC2)cc1 ... inactive
NC(=O)c1ncn([C@@H]2O[C@H](CO)[C@@H](O)[C@H]2O)n1 ... inactive

Ask: Hey, what did the test say about C[C@@H]1CC[C@@]2(OC1)O[C@H]1CC3C4CC[C@H]5C[C@@H](O)CC[C@]5(C)C4CC[C@]3(C)[C@H]1[C@@H]2C (stereo partly specified) ?
Reply: inactive

Ask: Hey, what did the test say about C[C@@H]1CC[C@@]2(NC1)O[C@H]1C[C@H]3C4CC=C5C[C@@H](O)CC[C@]5(C)C4CC[C@]3(C)C1[C@@H]2C (stereo partly specified) ?
Reply: active

Ask: Hey, what did the test say about CC1CC[C@]2(NC1)O[C@H]1CC3C4CC[C@H]5C[C@@H](O)CC[C@]5(C)C4CC[C@]3(C)[C@H]1[C@@H]2C (stereo partly specified) ?
Reply: active

Ask: Hey, what did the test say about CCC1OC(=O)[C@H](C)C(=O)[C@H](C)[C@@H](OC2O[C@H](C)C[C@H](N(C)C)[C@H]2O)[C@](C)(OC)C2(CCCn3cnc(-c4cccnc4)c3)C[C@@H](C)C(=O)[C@H](C)[C@H]3N(C2)C(=O)O[C@]13C (stereo partly specified) ?
Reply: inactive

Ask: Hey, what did the test say about C[C@]12CCC3c4ccc(O)cc4CCC3C1CC[C@@H]2O (stereo partly specified) ?
Reply: inactive
